System: Schoenoplectiella juncoides
Assay: Herbicidal activity against Schoenoplectiella juncoides under greenhouse condition compound treated at 0.5 leaf stage measured after 14 to 20 days
Assay type: functional
quantity_measured: ED80

Examples with answers:
In [3]: df
Out[3]:
                                   compound               assayed_system  quantity_measured     reported
0  CCN(CC)C(=O)OC(c1cnccc1C(F)(F)F)c1cccc2ccccc12 (stereo not drawn)  Schoenoplectiella juncoides               ED80  1000 gAi/ha
1  CNC(=O)OC(c1cnccc1C(F)(F)F)c1cccc2ccccc12 (stereo not drawn)  Schoenoplectiella juncoides               ED80   500 gAi/ha

What does the data say about its ED80? Entry: CN(C)C(=O)OC(c1cnccc1C#N)c1cccc2ccccc12 (stereo not drawn)
250 gAi/ha

---

System: Oryza sativa
Experiment: Phytotoxicity against Oryza sativa cv. Kinuhikari (rice) planted at 3 cm depth measured after 20 to 25 days
Type: organism-based
Conditions: in vivo
quantity_measured: ED20

Examples with answers:
>>> print(df.to_string())
                                   molecule       reported
0  CN(C)C(=O)OC(c1cnccc1C(F)(F)F)c1cccc2ccccc12 (racemic)    2000 gAi/ha
1  CN(C)C(=O)OC(c1cnccc1C(F)(F)F)c1ccc2c3c(cccc13)CC2 (stereo not given)  > 2000 gAi/ha
2  CN(C)C(=O)OC(c1cnccc1C(F)(F)F)c1cnccc1C(F)(F)F   < 250 gAi/ha
3  CN(C)C(=O)OC(c1cnccc1C(F)(F)F)c1c(Cl)ccc2c1OCO2 (stereo not given)  > 2000 gAi/ha

What does the data say about its ED20? Entry: CCN(CC)C(=O)OC(c1cnccc1C(F)(F)F)c1cccc2ccccc12 (stereo not given)
> 2000 gAi/ha

---

ED80 for assorted molecules
Test system: Echinochloa oryzicola
Experiment: Herbicidal activity against Echinochloa oryzicola under greenhouse condition compound treated at emergence stage measured after 14 to 20 days
Assay type: functional

Examples with answers:
                                   molecule    reported
0  CN(C)C(=O)OC(c1cnccc1Cl)c1cccc2ccccc12 (centres undefined)   63 gAi/ha
1  CN(C)C(=O)OC(c1cnccc1C(F)(F)F)c1c(Cl)ccc2c1OCO2 (centres undefined)   63 gAi/ha
2  CN(C)C(=O)OC(c1cnccc1C(F)(F)F)c1ccnc2ccccc12 (centres undefined)  125 gAi/ha
3  CCN(CC)C(=O)OC(c1cnccc1C(F)(F)F)c1cccc2ccccc12 (centres undefined)   31 gAi/ha

What does the data say about its ED80? Entry: CNC(=O)OC(c1cnccc1C(F)(F)F)c1cccc2ccccc12 (centres undefined)
63 gAi/ha

What would you report for CN(C)C(=O)OC(c1cnccc1Br)c1cccc2ccccc12 (centres undefined) ?
31 gAi/ha

What would you report for O=C(OC(c1cnccc1C(F)(F)F)c1cccc2ccccc12)n1ccnc1 (centres undefined) ?
>500 gAi/ha

What would you report for CN(C)C(=O)OC(c1cnccc1C(F)(F)F)c1cccc2ccccc12 (racemic) ?
31 gAi/ha

What would you report for CN(C)C(=O)OC(c1cnccc1C(F)(F)F)c1cnccc1C(F)(F)F ?
63 gAi/ha

What would you report for CN(C)C(=O)OC(c1cnccc1C#N)c1cccc2ccccc12 (centres undefined) ?
63 gAi/ha

---

System: Oryza sativa
Test: Phytotoxicity against Oryza sativa cv. Kinuhikari (rice) planted at 3 cm depth measured after 20 to 25 days
Format: organism-based
Details: in vivo
quantity_measured: ED20 (gAi/ha)
Express your answer in gAi/ha, writing the number without its unit.

Examples with answers:
In [3]: df
Out[3]:
                                   compound  assayed_system  quantity_measured  reported
0  CN(C)C(=O)OC(c1cnccc1Cl)c1cccc2ccccc12 (stereo not drawn)    Oryza sativa               ED20      1000
1  CN(C)C(=O)OC(c1cnccc1Br)c1cccc2ccccc12 (stereo not drawn)    Oryza sativa               ED20      2000
2  Cc1ccncc1C(OC(=O)N(C)C)c1cccc2ccccc12 (stereo not drawn)    Oryza sativa               ED20      2000

What does the data say about its ED20? Entry: CNC(=O)OC(c1cnccc1C(F)(F)F)c1cccc2ccccc12 (stereo not drawn)
2000

What would you report for CN(C)C(=O)OC(c1cnccc1C(F)(F)F)c1cccc2c1OCO2 (stereo not drawn) ?
500

What would you report for CN(C)C(=O)OC(c1cnccc1C(F)(F)F)c1ccnc2ccccc12 (stereo not drawn) ?
2000

---

System: Schoenoplectiella juncoides
Test: Herbicidal activity against Schoenoplectiella juncoides under greenhouse condition compound treated at 0.5 leaf stage measured after 14 to 20 days
Format: functional
quantity_measured: ED80 (gAi/ha)
Express your answer in gAi/ha, writing the number without its unit.

Examples with answers:
In [3]: df
Out[3]:
                                   compound  quantity_measured  units_symbol  reported
0  CN(C)C(=O)OC(c1cnccc1C(F)(F)F)c1cccc2ccccc12 (racemic)               ED80        gAi/ha       250
1  CN(C)C(=O)OC(c1cnccc1C(F)(F)F)c1cccc2c1OCO2 (stereo unspecified)               ED80        gAi/ha       250
2  CN(C)C(=O)OC(c1cnccc1Br)c1cccc2ccccc12 (stereo unspecified)               ED80        gAi/ha       250
3  CN(C)C(=O)OC(c1cnccc1C(F)(F)F)c1c(Cl)ccc2c1OCO2 (stereo unspecified)               ED80        gAi/ha       500
4  CN(C)C(=O)OC(c1cnccc1C(F)(F)F)c1cnccc1C(F)(F)F               ED80        gAi/ha        63

What does the data say about its ED80? Entry: CN(C)C(=O)OC(c1cnccc1C(F)(F)F)c1ccnc2ccccc12 (stereo unspecified)
500

What would you report for CN(C)C(=O)OC(c1cnccc1Cl)c1cccc2ccccc12 (stereo unspecified) ?
63

---

ED80 for assorted molecules
System: Echinochloa oryzicola
Experiment: Herbicidal activity against Echinochloa oryzicola under greenhouse condition compound treated at emergence stage measured after 14 to 20 days
Type: functional
Express your answer in gAi/ha, writing the number without its unit.

Examples with answers:
>>> print(df.to_string())
                                   molecule  reported
0  CN(C)C(=O)OC(c1cnccc1C(F)(F)F)c1cccc2c1OCO2 (centres undefined)        63
1  CN(C)C(=O)OC(c1cnccc1C(F)(F)F)c1ccc2c3c(cccc13)CC2 (centres undefined)       500

Consider the additional molecule presented here.
What does the data say about its ED80? Entry: Cc1ccncc1C(OC(=O)N(C)C)c1cccc2ccccc12 (centres undefined)
500
